MEASURED TARGET: wild-type BRAF (Homo sapiens, UniProt P15056)
Sequence (P15056 whole entry): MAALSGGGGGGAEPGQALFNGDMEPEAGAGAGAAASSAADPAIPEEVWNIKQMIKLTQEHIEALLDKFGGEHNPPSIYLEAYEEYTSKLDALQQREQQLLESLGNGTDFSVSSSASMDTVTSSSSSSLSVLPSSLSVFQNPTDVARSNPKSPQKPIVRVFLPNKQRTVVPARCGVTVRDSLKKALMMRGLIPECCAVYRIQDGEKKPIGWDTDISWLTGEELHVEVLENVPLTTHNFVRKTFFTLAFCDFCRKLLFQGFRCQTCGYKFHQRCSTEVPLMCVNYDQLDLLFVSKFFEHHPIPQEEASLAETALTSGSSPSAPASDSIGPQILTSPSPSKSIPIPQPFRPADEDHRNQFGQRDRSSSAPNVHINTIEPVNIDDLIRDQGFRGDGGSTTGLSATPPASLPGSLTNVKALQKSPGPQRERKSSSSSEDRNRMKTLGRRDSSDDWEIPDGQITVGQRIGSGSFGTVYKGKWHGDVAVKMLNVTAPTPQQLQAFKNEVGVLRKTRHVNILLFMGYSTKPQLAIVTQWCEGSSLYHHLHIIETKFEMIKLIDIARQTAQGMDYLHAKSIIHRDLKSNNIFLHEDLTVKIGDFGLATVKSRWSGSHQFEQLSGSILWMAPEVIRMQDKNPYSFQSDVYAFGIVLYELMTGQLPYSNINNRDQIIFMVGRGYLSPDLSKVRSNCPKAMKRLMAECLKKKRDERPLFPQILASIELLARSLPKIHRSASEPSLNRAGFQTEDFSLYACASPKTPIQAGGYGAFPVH
ASSAY REMARKS: Enzymatic activity (IC50) to kinases
Format: biochemical
CONDITION SET: read-out: IC50 (Unit: nM) BRAF

ITEM SMILES | MEASURED TARGET | READOUT UNITS | IC50
C[C@H](O)CNc1nccc(-n2ccnc2Cc2cccc(NC(=O)Nc3ccc(C(F)(F)F)c(Cl)c3)c2)n1 | wild-type BRAF (Homo sapiens, UniProt P15056) | nM | 186

----------
Test system: U937 human leukemic monocyte lymphoma cell line
ASSAY REMARKS: Antiproliferative activity to U937 human leukemic monocyte lymphoma cell line
Assay type: cell-based
CONDITION SET: U-937; U937 human leukemic monocyte lymphoma cell line; read-out: U937 (GI50, Unit: μM)
REPORTED METRIC: GI50 (µM)

ITEM SMILES | READOUT UNITS | RECORDED MEASUREMENT
C[C@H](O)CNc1nccc(-n2ccnc2Cc2cccc(NC(=O)c3cnn(-c4ccccc4)c3C(F)(F)F)c2)n1 | µM | 25.8
C[C@H](O)CNc1nccc(-n2ccnc2Cc2cccc(NC(=O)Nc3cccc(Cl)c3)c2)n1 | µM | 1.73
C[C@H](O)CNc1nccc(-n2ccnc2Cc2cccc(NC(=O)c3cc(N4CCOCC4)cc(C(F)(F)F)c3)c2)n1 | µM | 9.7
C[C@H](O)CNc1nccc(-n2ccnc2C(=O)c2cccc(NC(=O)c3cc(N4CCOCC4)cc(C(F)(F)F)c3)c2)n1 | µM | 4.9
C[C@H](O)CNc1nccc(-n2ccnc2Cc2cccc(NC(=O)c3ccc(Cl)c(C(F)(F)F)c3)c2)n1 | µM | 6.83
C[C@H](O)CNc1nccc(-n2ccnc2C(=O)c2ccc(NC(=O)Nc3ccc(Cl)c(C(F)(F)F)c3)cc2)n1 | µM | 7.45
C[C@H](O)CNc1nccc(-n2ccnc2C(=O)c2cccc(NC(=O)c3cccc(C(F)(F)F)c3)c2)n1 | µM | 3.78
